protocol.details: qHTS assay to identify small molecule antagonists of the vitamin D receptor (VDR) signaling pathway - cell viability counter screen (AID 743225); also: nearly all actives have a fitted effect of over 50% in size
condition.description: VDR-bla HEK293T viability, CellTiter-Glo luminescence, 16 h; series mostly up to 61 µM
Records with an inconclusive call do not appear. Activity calls are given as the source filed them. Calls follow the shape of the dose curve; as a rule, active = well fitted cell-killing curve with a large enough effect in the repeat runs; inconclusive = weak or mixed curves, or effect the other way; inactive = no such curve, though single readings can be large or run the other way.
Write down one outcome, taken from 1 = active, 0 = inactive

Q: Dear all, I need the recorded test outcome for `C[C@]12CC[C@H]3[C@@H](CCC4=CC(=O)CC[C@@]43C)[C@@H]1CC[C@@H]2O` , thank you.
A: 0

Q: Per the assay record, what outcome was assigned to C1CCC2CCCCC2C1 (centres undefined) ?
A: 0

Q: Per the assay record, what outcome was assigned to `CCCN(CCC)c1c([N+](=O)[O-])cc(S(N)(=O)=O)cc1[N+](=O)[O-]` ?
A: 1

Q: How did this test come out for `CCN(CC)c1c([N+](=O)[O-])cc(C(F)(F)F)c(N)c1[N+](=O)[O-]` ?
A: 0
